# System: Streptococcus pyogenes
# protocolText: Tested in vitro for antibacterial activity against Streptococcus pyogenes using micro-broth dilution method
# Type: functional
experimentalEndpoint: MIC (µg/mL)

{"columns": ["chemicalStructure", "unitsSymbol", "MIC"],
 "data": [
  ["CCCCCCCCCCCCNC[C@H](O[C@@H]1O[C@H](CN)[C@@H](O)[C@H]1O)[C@@H]1C[C@@H](O)[C@H](n2ccc(=O)[nH]c2=O)O1.O=C(O)C(F)(F)F", "µg/mL", 2.5]
]}

(A) CCCCCCCCCCNC[C@H](O[C@@H]1O[C@H](CN)[C@@H](O)[C@H]1O)[C@@H]1C[C@@H](O)[C@H](n2ccc(=O)[nH]c2=O)O1.O=C(O)C(F)(F)F
(B) CCCCCCCCCCCCCCNC[C@H](O[C@@H]1O[C@H](CN)[C@@H](O)[C@H]1O)[C@@H]1C[C@@H](O)[C@H](n2ccc(=O)[nH]c2=O)O1.O=C(O)C(F)(F)F
Task: Which one would you say has the larger MIC value: A , or B ? Lab log: write the label of the selected item as the result.
Output: A
(A: 20 µg/mL, B: 2.5 µg/mL)
